Each entry below carries its recorded relative binding affinity (RBA).
# tested-on: Estrogen receptor (Mus musculus) (UniProt O08537+P19785)
# Sequence (O08537 whole entry, looked up): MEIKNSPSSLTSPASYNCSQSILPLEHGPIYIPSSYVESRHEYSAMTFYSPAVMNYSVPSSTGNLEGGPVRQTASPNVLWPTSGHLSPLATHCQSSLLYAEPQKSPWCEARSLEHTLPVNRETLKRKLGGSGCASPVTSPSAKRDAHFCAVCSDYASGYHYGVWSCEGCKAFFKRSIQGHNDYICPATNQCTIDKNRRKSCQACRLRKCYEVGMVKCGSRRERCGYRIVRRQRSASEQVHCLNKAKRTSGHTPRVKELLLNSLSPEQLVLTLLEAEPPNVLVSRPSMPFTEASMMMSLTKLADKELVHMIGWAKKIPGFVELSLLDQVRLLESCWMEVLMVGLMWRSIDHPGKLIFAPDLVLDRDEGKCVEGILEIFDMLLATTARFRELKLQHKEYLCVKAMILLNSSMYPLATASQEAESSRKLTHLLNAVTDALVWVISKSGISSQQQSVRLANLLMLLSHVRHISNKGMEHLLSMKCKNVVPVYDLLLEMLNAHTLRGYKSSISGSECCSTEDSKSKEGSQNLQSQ
# Sequence (P19785 whole entry, looked up): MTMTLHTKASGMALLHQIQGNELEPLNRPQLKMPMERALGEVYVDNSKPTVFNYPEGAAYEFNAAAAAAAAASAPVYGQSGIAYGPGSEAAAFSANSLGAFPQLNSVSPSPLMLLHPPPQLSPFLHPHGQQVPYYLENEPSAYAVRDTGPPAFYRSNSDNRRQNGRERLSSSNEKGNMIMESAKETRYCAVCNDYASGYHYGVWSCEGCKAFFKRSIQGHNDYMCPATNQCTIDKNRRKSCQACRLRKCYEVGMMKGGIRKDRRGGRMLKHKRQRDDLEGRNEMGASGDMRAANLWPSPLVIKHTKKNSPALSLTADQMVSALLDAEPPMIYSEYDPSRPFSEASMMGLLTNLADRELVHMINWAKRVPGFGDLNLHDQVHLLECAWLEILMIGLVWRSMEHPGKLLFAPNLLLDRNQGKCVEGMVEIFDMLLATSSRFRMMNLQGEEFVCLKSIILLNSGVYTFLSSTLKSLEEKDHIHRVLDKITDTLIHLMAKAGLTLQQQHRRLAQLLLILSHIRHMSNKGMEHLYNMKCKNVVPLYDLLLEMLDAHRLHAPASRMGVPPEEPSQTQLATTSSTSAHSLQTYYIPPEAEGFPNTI
# experimental-details: Binding affinity at murine estrogen receptor by [3H]estradiol displacement.
# Type: protein assay
Just the number, please.

CCO[C@H]1C[C@]2(C)[C@@H](O)[C@H](Cl)C[C@H]2[C@@H]2CCc3cc(O)ccc3[C@H]21 | 14.9
CCO[C@H]1C[C@]2(C)C(=O)[C@H](Br)C[C@H]2[C@@H]2CCc3cc(O)ccc3[C@H]21 | 0.8

Recorded relative binding affinity (RBA) of `C[C@@H]1Cc2cc(O)ccc2[C@H]2CC[C@]3(C)[C@@H](O)[C@H](I)C[C@H]3[C@H]12` , please.
55.2

Give the measured relative binding affinity (RBA) of `CCO[C@H]1C[C@]2(C)[C@@H](O)[C@@H](Br)C[C@H]2[C@@H]2CCc3cc(O)ccc3[C@H]21` .
0.6

----------
# tested-on: Estrogen receptor (Mus musculus) (UniProt O08537+P19785)
# experimental-details: Binding affinity at murine estrogen receptor by [3H]estradiol displacement.
# Assay type: protein assay
reported-endpoint: relative binding affinity (RBA)
Lab note: write the figure by itself, no unit.

Here is how some compounds turned out for relative binding affinity (RBA).
C[C@@H]1Cc2cc(O)ccc2[C@H]2CC[C@]3(C)[C@@H](O)[C@H](Cl)C[C@H]3[C@H]12 | 71.5
C[C@@H]1Cc2cc(O)ccc2[C@H]2CC[C@]3(C)[C@@H](O)[C@@H](Cl)C[C@H]3[C@H]12 | 4.3

Entry under review: `CCO[C@H]1C[C@]2(C)C(=O)[C@H](Cl)C[C@H]2[C@@H]2CCc3cc(O)ccc3[C@H]21` . Reported relative binding affinity (RBA)?
0.8

Query (compound): `CCO[C@H]1C[C@]2(C)[C@@H](O)[C@H](Br)C[C@H]2[C@@H]2CCc3cc(O)ccc3[C@H]21` ; field requested: relative binding affinity (RBA)
16.8

----------
# tested-on: Estrogen receptor (Mus musculus) (UniProt O08537+P19785)
# experimental-details: Binding affinity at murine estrogen receptor by [3H]estradiol displacement.
# Type: protein assay
reported-endpoint: relative binding affinity (RBA)

C[C@@H]1Cc2cc(O)ccc2[C@H]2CC[C@]3(C)C(=O)[C@H](Cl)C[C@H]3[C@H]12 | 33.8
CCO[C@H]1C[C@]2(C)[C@@H](O)[C@H](I)C[C@H]2[C@@H]2CCc3cc(O)ccc3[C@H]21 | 16.5
C[C@@H]1Cc2cc(O)ccc2[C@H]2CC[C@]3(C)[C@H](O)[C@H](Cl)C[C@H]3[C@H]12 | 16.6
C[C@@H]1Cc2cc(O)ccc2[C@H]2CC[C@]3(C)[C@@H](O)[C@@H](Br)C[C@H]3[C@H]12 | 7.1
CO[C@H]1C[C@]2(C)[C@@H](O)[C@H](Br)C[C@H]2[C@@H]2CCc3cc(O)ccc3[C@H]21 | 20

# get_value(readout='relative binding affinity (RBA)', item= `CCO[C@H]1C[C@]2(C)[C@H](O)[C@H](Cl)C[C@H]2[C@@H]2CCc3cc(O)ccc3[C@H]21` )
0.8

----------
// reported relative binding affinity (RBA) for each item listed
# tested-on: Estrogen receptor (Mus musculus) (UniProt O08537+P19785)
# experimental-details: Binding affinity at murine estrogen receptor by [3H]estradiol displacement.
# Type: protein assay
Answer with a bare number; do not write a unit.

C[C@@H]1Cc2cc(O)ccc2[C@H]2CC[C@]3(C)C(=O)[C@@H](Br)C[C@H]3[C@H]12 | 5.3
C[C@@H]1Cc2cc(O)ccc2[C@H]2CC[C@]3(C)[C@H](O)[C@H](Br)C[C@H]3[C@H]12 | 13.6
CCO[C@H]1C[C@]2(C)[C@H](O)[C@H](Br)C[C@H]2[C@@H]2CCc3cc(O)ccc3[C@H]21 | 1.1
C[C@@H]1Cc2cc(O)ccc2[C@H]2CC[C@]3(C)[C@@H](O)[C@H](Br)C[C@H]3[C@H]12 | 79.1

The record that follows has no relative binding affinity (RBA) shown yet.
Any idea what relative binding affinity (RBA) came out for `C[C@@H]1Cc2cc(O)ccc2[C@H]2CC[C@]3(C)C(=O)[C@H](Br)C[C@H]3[C@H]12` on Estrogen receptor (Mus musculus) (UniProt O08537+P19785)?
28.4
